- testTarget: FtuβCA (Francisella tularensis, UniProt Q5NH77)
- Construct: gene cynT
- Sequence (Q5NH77 1-228): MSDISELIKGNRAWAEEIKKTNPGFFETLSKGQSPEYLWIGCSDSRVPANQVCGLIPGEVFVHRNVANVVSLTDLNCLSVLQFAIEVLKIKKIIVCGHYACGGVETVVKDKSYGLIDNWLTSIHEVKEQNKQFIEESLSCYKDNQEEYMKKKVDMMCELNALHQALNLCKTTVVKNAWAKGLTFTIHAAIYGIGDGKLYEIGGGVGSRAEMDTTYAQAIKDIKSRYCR
- Type: biochemical
- experimentalConditions: read-out: KI (μM)^a / FtuβCA
Listed next: entries and their corresponding Ki.
Provide only the numeric value, understood in µM.

compound	Ki [µM]
C#CCOP(N)(=O)c1ccccc1 (stereo not shown) [compound 10, propargyl phosphonamidate 10]	6.9

Give FtuβCA (Francisella tularensis, UniProt Q5NH77) Ki for CC(C)OP(N)(=O)c1ccccc1 (stereo not shown) 18.4

Recall the recorded Ki for COP(N)(=O)c1ccccc1 (stereo not shown) [compound 3, methyl phosphonamidate 3] with FtuβCA (Francisella tularensis, UniProt Q5NH77) and state it. 8.5

Please tell me: Ki of NP(N)(=O)c1ccccc1 [compound 2, phenylphosphonic diamide 2] , system FtuβCA (Francisella tularensis, UniProt Q5NH77)? 10.3

Value wanted: Ki (FtuβCA (Francisella tularensis, UniProt Q5NH77)) of entry CCCOP(N)(=O)c1ccccc1 (stereo not shown) 35.6

Can you look up Ki on FtuβCA (Francisella tularensis, UniProt Q5NH77) for NP(=O)(OCCCl)c1ccccc1 (stereo not shown) [compound 9, alkyl phosphonamidate 9] ? 15.1

Form entry - test system: FtuβCA (Francisella tularensis, UniProt Q5NH77); read-out: Ki; compound: CCCCOP(N)(=O)c1ccccc1 (stereo not shown) [compound 7, alkyl phosphonamidate 7] 42
